system: SK-MEL-5 melanoma; assay: NCI-60 one-dose screen, 48 h (100 = growth as untreated, 0 = no growth, -100 = all killed); details: 10 µM unless noted
About 83,000 compounds went through this panel and 20% of them were active in at least one assay; those are over-represented in the sample as a whole.
Assign growth to each entry below.
One number for each entry, in %.

Example entries begin here.
COMPOUND | QUANTITY_MEASURED | UNIT_TEXT | REPORTED_RESULT
CC(=O)OC1CCC2(C)C(=CC3C4CCC(=O)C4(C)CCC32)C1 (stereo not drawn) | growth | % | 105
O=C(c1ccccc1)N1N=C(c2ccccc2)CC1c1nnc2n(Cc3ccccc3)c(=O)c3c4c(sc3n12)CCCC4 (stereo not drawn) | growth | % | 109
Cc1cccc(Cc2cnc(NC(=O)c3ccc4nnsc4c3)s2)c1 | growth | % | 97.3
C#CCOc1nc(C)cc(C)c1C#N | growth | % | 98.9
CCOP(=O)(OCC)C1CP(=O)(c2ccccc2)CC(C)=C1Cl (stereo not drawn) | growth | % | 103

For each of the compounds below, note its growth.
1. COc1ccc(-c2nc(SCCC(C)C)nc(N/N=C\c3cccc([N+](=O)[O-])c3)c2C#N)cc1
2. Cc1ccc(/C=C2\C(=O)N(C)c3ccc(S(=O)(=O)Nc4ccc(C(C)(C)C)cc4)cc32)s1
3. COc1ccc(CN2C(=O)C(Cl)=C(Nc3cccc(C(F)(F)F)c3)C2=O)cc1

-- reply
1: 71.1; 2: 82.3; 3: 63.3

* * *

system: HCC-2998 colon; test: NCI-60 one-dose screen, 48 h; conditions: 10 µM unless noted
This is part of a sample that, as a whole, favours compounds with a hit. Of some 83,000 tested, about 20% had one in any assay. Calls of active or inactive are those of the source. Rule for the calls: active = growth percent below 10; inactive = the rest.
// one of active, inactive, no free text

MOLECULE | CLASS
Cc1ccc(NS(=O)(=O)c2ccc3c(c2)C2OCCC2C(c2ccc(C(=O)C(C)C)cc2)N3)cc1C (configuration not stated) | inactive

-- ask Which outcome was assigned to `Nc1ccc2c(c1)c(N)nn2C(=O)Nc1ccc(Cc2ccccc2)cc1` in this test?
-- reply inactive

-- ask Which outcome was assigned to `CC(=O)[C@@H]1CC[C@]2(COS(=O)(=O)c3ccc(C)cc3)CC[C@]3(C)[C@H](CC[C@@H]4[C@@]5(C)CCCNC(C)(C)[C@@H]5CC[C@]43C)[C@@H]12` in this test?
-- reply inactive

-- ask Which outcome was assigned to `O=C(N/N=C/c1ccncc1)c1ccc(C(F)(F)F)nc1Nc1cccc(C(F)(F)F)c1` in this test?
-- reply active

-- ask Which outcome was assigned to `CN1CCN(CCCOc2ccc3nc(Nc4ccc(F)c(F)c4)ccc3c2)CC1` in this test?
-- reply active

-- ask Which outcome was assigned to `Cc1ccc(Cc2cnc(NC(=O)c3ccc4noc(-c5ccccc5)c4c3)s2)cc1` in this test?
-- reply inactive

-- ask Which outcome was assigned to CC1OC(O[C@H]2/C=C/C=C/C=C/C=C/C=C/C=C/C=C/[C@H](C)[C@@H](O)[C@@H](C)[C@H](C)OC(=O)CC(O)CC(O)CCC(O)C(O)CC(O)C[C@]3(O)C[C@H](O)C(C(=O)O)C(C2)O3)C(O)[C@H](N)C1O (some centres not stated) in this test?
-- reply inactive

* * *

test system: MDA-MB-435 melanoma; experiment: NCI-60 one-dose screen, 48 h (100 = growth as untreated, 0 = no growth, -100 = all killed); conditions: 10 µM unless noted
About 83,000 compounds went through this panel and 20% of them were active in at least one assay; those are over-represented in the sample as a whole.
QUANTITY_MEASURED: growth (%)
Numbers only, in %.

COMPOUND | ASSAY_SYSTEM | UNIT_TEXT | growth
COc1cccc(C(=O)NCCNc2cc(-c3cn(-c4ccccc4)nc3-c3cccc(OC)c3)ccn2)c1 | MDA-MB-435 melanoma | % | 64.3
COc1ccc2nc(NNC(=O)c3cnccn3)c3cccn3c2c1 | MDA-MB-435 melanoma | % | 13.5
COc1cccc(/C=C/C(=O)c2c(C)nc3ccccc3c2/C=C/c2ccc(C)cc2)c1OC | MDA-MB-435 melanoma | % | 55.5

For each of the compounds below, note its growth.
1. O=C(Nc1cccc(C(F)(F)F)c1)Nc1cccc(C(F)(F)F)c1
2. COc1ccc(-c2[nH]c(=S)n(C(CC3(C)NCC(=O)N3n3c(-c4ccccc4)cc(C)nc3=S)c3ccc(OC)cc3)c(=O)c2Br)cc1 (centres undefined)
3. Cc1ccc(-n2nc3c(c(C#N)c2=O)CC(c2ccccc2Cl)C([N+](=O)[O-])=C3O)cc1 (centres undefined)
4. COc1cccc(-c2nn(-c3ccccc3)cc2-c2ccnc(NCCNC(=O)Nc3ccc(Cl)c(Cl)c3)c2)c1
5. CC1CC(C(C)(C)C)C(=O)C(C(C)(C)C)C1 (centres undefined)

-- reply
1. 9.11
2. 57.4
3. 102
4. -66.9
5. 103

The compound CC(=O)OC1CCC2(C)C(=CC3C4CCC(=O)C4(C)CCC32)C1 (centres undefined) on MDA-MB-435 melanoma: growth was 116

* * *

system: BT-549 breast; assay: NCI-60 one-dose screen, 48 h (100 = growth as untreated, 0 = no growth, -100 = all killed); conditions: 10 µM unless noted
The panel holds about 83,000 compounds, 20% with a hit somewhere; the sample as a whole holds those more often. Active and inactive are the calls of the source. How the source made its calls: active means growth percent below 10; inactive means the rest.
QUANTITY_MEASURED: growth

Example entries begin here.
MOLECULE | growth
O=C(N=c1oc2ccccc2cc1-c1cc2ccccc2[nH]1)c1ccc(Cl)cc1 | 76% (inactive)
C[C@H](NC(=O)[C@@H]1CSSC[C@@H](NC(=O)c2nc3ccccc3cc2O)C(=O)NCC(=O)N1C)c1ccccc1 | 44.3% (inactive)
COc1cccc(-c2nc3sccn3c2/C=C/C(=O)c2ccc(C(F)(F)F)cc2)c1 | 87.3% (inactive)

// moving on: another record for growth
Lab note: CC(CCc1ccc(Cl)c(Cl)c1)NCc1ccc(C(C)(C)C)cc1 (centres undefined) gave growth of 68.9% (inactive)

* * *

test system: MCF7 breast; test: NCI-60 one-dose screen, 48 h; settings: 10 µM unless noted
About 83,000 compounds went through this panel and 20% of them were active in at least one assay; those are over-represented in the sample as a whole. Calls of active or inactive are those of the source. The calls were made as follows: active = growth percent below 10; inactive = the rest.
// one of yes = active, no = inactive, no free text

Solved cases below.
COMPOUND | CLASS
O=C(CC(SCc1ccccc1)c1ccccc1)c1ccccc1 (stereo not given) | no
Cc1ccc(S(=O)(=O)NCC[C@@H]2C[C@H]2c2cc3ccccc3s2)cc1 | no
O=C1NC(=Nc2ccc(Cl)cc2)S/C1=C\c1cn(-c2ccccc2)nc1-c1ccccc1 | no
N=C1CCC(=N)c2c1c(O)c1ccccc1c2O | no
O=C(N/N=C/C=C/c1ccc([N+](=O)[O-])o1)c1cc2ccccc2cc1O | yes
Cc1c(C(=O)N[C@@H](Cc2ccccc2)C(=O)C(=O)NCCc2ccccc2)[nH]c2ccccc2c1=O | no

-- ask Which outcome was assigned to `O=C1/C(=C/c2ccccc2)CCc2nc3ccccc3c(/C=C/c3ccc(Cl)cc3)c21` in this test?
-- reply no

-- ask Which outcome was assigned to `COc1ccc(NC(=O)CSc2nc(C)c(C(C)=O)n2-c2ccc([N+](=O)[O-])cc2)cc1` in this test?
-- reply no

-- ask Which outcome was assigned to `COc1ccc2c(c1)[nH]c(=O)c1c3cccnc3cn21` in this test?
-- reply no

-- ask Which outcome was assigned to `O=C(Nc1ccccc1Cl)Oc1ccc(-c2ccccc2)cc1` in this test?
-- reply no

* * *

test system: M14 melanoma; assay: NCI-60 one-dose screen, 48 h (100 = growth as untreated, 0 = no growth, -100 = all killed); settings: 10 µM unless noted
The panel holds about 83,000 compounds, 20% with a hit somewhere; the sample as a whole holds those more often.
QUANTITY_MEASURED: growth (%)
Answers are plain numbers, in %.

Example entries begin here.
MOLECULE | growth / %
Cc1cc(NCc2cc(Nc3ccnc4cc(Cl)ccc34)ccc2F)nc(N2CCSCC2)n1 | -51.6
COc1ccc(-c2nc(SC(C)C)nc(NNC(N)=S)c2C#N)cc1 | 53.8
O=c1ccn2nc3ccccc3c2[nH]1 | 98.6
O=C(/C=C/c1cccc(O)c1)c1cccc(-n2cc(-c3ccc4ccccc4c3)[nH]c2=O)c1 | 16.2
CCOc1ccccc1-c1cc(-c2cccs2)c(C#N)c(=O)[nH]1 | 85.1

For each of the molecules below, note its growth.
1. Cc1cc(C)c(-c2c(C)cc(C)cc2CBr)c(CBr)c1
2. C#CCOc1nc(C)cc(C)c1C#N
3. Cc1ccc(N2CCN(C(=S)c3cccs3)CC2)cc1
4. COC(=O)[C@]12CC[C@@H](C)[C@H](C)[C@@H]1C1=CC[C@@H]3[C@@]4(C)C(C=O)=C[C@@](C)(COC(=O)c5ccco5)C4=CC[C@@]3(C)[C@]1(C)CC2
5. O=C(Nc1cccc2c(O)c(N=Nc3ccc(S(=O)(=O)Nc4nccs4)cc3)cc(N=Nc3ccc(S(=O)(=O)Nc4nccs4)cc3)c12)C(Cl)Cl
6. COc1ccc(N2CCN(c3nc(-c4cc(OC)c(OC)c(OC)c4)nc4ccccc34)CC2)cc1
7. CN1CCN(C(=O)c2c3c(n4ccccc24)C(=O)c2ncccc2C3=O)CC1

-- reply
[72.5, 98.1, 103, -33.9, 110, 71.3, 49]

For each of the molecules below, note its growth.
1. CC/C=C/C/C=C/C/C=C/C/C=C/C/C=C/C/C=C/CCC(=O)Nc1ccn([C@@H]2O[C@H](CO)[C@@H](O)C2(F)F)c(=O)n1
2. O=C(c1ccccc1)c1c(/C=C/c2ccc(Cl)cc2)nc2ccccc2c1/C=C/c1cccs1
3. O=C1/C(=C\c2c[nH]c3ccccc23)c2ccccc2N1c1c(Cl)cccc1Cl
4. O=C1/C(=C\c2cccnc2)SC(=S)N1CCc1ccc(O)cc1
5. Cc1occc1-c1n[nH]c(=S)n1N1C(=O)CSC1=S

-- reply
-22.7
96.8
-86.3
60.2
102

Lab note: CC1OC(O[C@H]2/C=C/C=C/C=C/C=C/C=C/C=C/C=C/[C@H](C)[C@@H](O)[C@@H](C)[C@H](C)OC(=O)CC(O)CC(O)CCC(O)C(O)CC(O)C[C@]3(O)C[C@H](O)C(C(=O)O)C(C2)O3)C(O)[C@H](N)C1O (stereo partly drawn) gave growth of 16.3

Data credit: PubChem BioAssay (NCI)
